Where these numbers come from: patent US20250084063A1

target: MRGPRX2 (Homo sapiens); assay: MRGPRX2 β-Arrestin assay; type: cell-based; set-up: host or cells: PathHunter CHO-K1; conditions: PathHunter CHO-K1 MRGPRX2 β-Arrestin cell line; agonist Cortistatin 14 0.25 μM
Sequence (Q96LB1 whole entry): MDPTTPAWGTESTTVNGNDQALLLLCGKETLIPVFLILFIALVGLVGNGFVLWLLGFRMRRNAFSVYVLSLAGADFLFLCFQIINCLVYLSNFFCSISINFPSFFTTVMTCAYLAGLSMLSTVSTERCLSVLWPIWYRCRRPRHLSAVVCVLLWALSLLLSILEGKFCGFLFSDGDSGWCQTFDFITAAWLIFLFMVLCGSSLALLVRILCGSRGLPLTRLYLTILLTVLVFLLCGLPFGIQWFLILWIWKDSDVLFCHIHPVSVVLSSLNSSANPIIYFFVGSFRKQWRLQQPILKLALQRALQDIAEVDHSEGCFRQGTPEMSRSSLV
pIC50: −log10 of the molar value.
Reported pIC50 by item:
Measured parameter: pIC50

Compound: NS(=O)(=O)N1CCC(CNc2cc(C(F)(F)F)nc3ccc(Cl)cc23)(c2ccccc2)CC1
Target desc: MRGPRX2 (Homo sapiens)
Measured parameter: pIC50
Observed result: 7.00 to 10.00
//
Compound: Cn1ncc2ccc(C3(CNc4cc(C(F)(F)F)nc5ccc(Cl)cc45)CN(S(N)(=O)=O)C3)cc21
Target desc: MRGPRX2 (Homo sapiens)
Measured parameter: pIC50
Observed result: 7.00 to 10.00
//
Compound: CN1CC(C(=O)NC2CC(CNc3cc(C(F)(F)F)nc4ccc(Cl)cc34)(c3ccccc3)C2)C1 (stereo not shown)
Target desc: MRGPRX2 (Homo sapiens)
Measured parameter: pIC50
Observed result: 7.00 to 10.00
//
Compound: NC(=O)N1CC(CNc2cc(C(F)(F)F)nc3ccncc23)(c2ccc(F)cc2)C1
Target desc: MRGPRX2 (Homo sapiens)
Measured parameter: pIC50
Observed result: 6.00 to 7.00
